# MEASURED_ON: T1, human LTBR on cells (human, UniProt P36941 31-435)
# T1 construct: also called recombinant human LTBR CHO cells; CHO-K1 cells overexpressing human LTBR
# TEST_PROTOCOL: FACS CHO-huLTBR, 0.001 µg/ml
PARAMETER: MFI
Respond with the figure and its unit, in that order.

Q: Returns the measured MFI for the input binder. Input: P1AE1873 (CBE11) (antibody, human IgG1, kappa, L234A L235A, V domains shown) VH: EVQLVESGGGLVKPGGSLRLSCAASGFTFSDYYMYWFRQAPGKGLEWVATISDGGSYTYYPDSVKGRFTISRDNAKNSLYLQMSSLRAEDTAVYYCAREENGNFYYFDYWGQGTTVTVSS VL: DIQMTQSPSSLSASVGDRVTITCKAGQDIKSYLSWYQQKPGKAPKLLIYYATRLADGVPSRFSGSGSGTDYTLTISSLQPEDFATYYCLQHGESPWTFGGGTKLEIKR
A: 1020 MFI
